# experiment: BA test (oral absorbability)
# Assay type: in vivo
# recorded conditions: rat, oral administration of parent compound
recorded endpoint: Parent compound BA(%)
The figure you give is taken to be in %; do not add the unit.

Guide cases for Parent compound BA(%), answers given:
>  <compound>
C[C@@H](N1CN([C@H]2c3cccc(F)c3CSc3c(Cl)cccc32)n2ccc(=O)c(O)c2C1=O)C(F)(F)F [Reference example 594]

>  <endpoint value>
5.0

$$$$
>  <compound>
C[C@@H](N1CN([C@@H]2c3ccccc3SCc3c(F)cccc32)n2ccc(=O)c(O)c2C1=O)C(F)(F)F [Reference example 445]

>  <endpoint value>
12.1

$$$$
>  <compound>
C[C@@H](N1CN([C@@H]2c3ccccc3SCc3cccc(Cl)c32)n2ccc(=O)c(O)c2C1=O)C(F)(F)F [Reference example 429]

>  <endpoint value>
13.3

$$$$

Consider the additional compound presented here.
Query block: Item CC(C)N1CN(C2c3ccccc3CSc3ccccc32)n2ccc(=O)c(O)c2C1=O (stereo not shown) [Reference example 301] has what recorded Parent compound BA(%)?
Result block: 2.3
